Molecular target: T1, Biotinylated human TSLP (human, biotinylated)
T1 construct: also called hTSLP; thymic stromal lymphopoietin
T1 sequence (chain, as listed by the source limits assumed): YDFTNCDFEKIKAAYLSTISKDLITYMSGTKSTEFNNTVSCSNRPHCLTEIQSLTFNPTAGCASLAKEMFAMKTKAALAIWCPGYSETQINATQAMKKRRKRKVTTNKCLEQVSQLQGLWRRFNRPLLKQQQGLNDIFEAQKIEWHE
Experiment: SPR, biotinylated hTSLP on streptavidin chip
*1 amine or outer side, *2 acyl side, *3 side chain or, on linkers, in order; H or OH if unused. Bridges are numbered along the chain shown (N, C = ends). Where no end group is shown, it is not given here. [ ]: non-standard residue; d: D form. TATA = O=C(CC[*:1])N1CN(C(=O)CC[*:2])CN(C(=O)CC[*:3])C1; Abu(4,4,4-F3) = N[C@@H](CC(F)(F)F)C(=O)O
property-measured: Kd (nM)

Some solved entries appear below for comparison.
ACRDLDPWTCPTWWTCYDE (linker 2-10-16 via TATA; not fully specified (C-terminus)) [Example 168] | 290
CQWLEDCWXGFC (not fully specified; N-term acetyl; CQWLEDCW[Dap]GFC as printed; 3 Cys on TATA) [Example 155] | 3200
CTELDXWTCETWWLC (CTELD[diF-P]WTCETWWLC as printed; 3 Cys on TATA) [Example 182] | 1300
ACTDLDPWTCNSWWLCAGD (linker 2-10-16 via TATA; not fully specified (C-terminus)) [Example 169] | 290
ACTWLEDCWRGFCADS (linker 2-8-13 via TATA) [Example 63] | 65

a. DHDCTWNWEYDCWLDCA (linker 4-12-16 via TATA) [Example 200]
b. ACNWLEDCWHGFCHEE (linker 2-8-13 via TATA; not fully specified (C-terminus)) [Example 125]
c. ACKDLDPWTCSSWWECAPN (linker 2-10-16 via TATA; not fully specified (C-terminus)) [Example 167]
Ask | Provide the items ranked by increasing Kd. Answer format: list of labels, ordered as asked.
Reply | a, c, b
(a: 68 nM, c: 170 nM, b: 300 nM)

A. ACDWLDDCWKGFCA (linker 2-8-13 via TATA) [Example 141]
B. CQWLEDCWRGXC (N-term acetyl; CQWLEDCWRG[4-CF3Phe]C as printed; 3 Cys on TATA) [Example 77]
Ask | Look at A and B . Which one has the lower recorded Kd number? Give the label under which the chosen entry appears.
Reply | B
(B: 93 nM, A: 600 nM)

I. Ac-CQW[Abu(4,4,4-F3)]EDCWRGFC (linker 1-7-12 via TATA; not fully specified (C-terminus)) [Example 111]
II. ACFWLEDCWRGYCETA (linker 2-8-13 via TATA) [Example 138]
Ask | Look at I and II . Which one has the lower recorded Kd number? Give the label under which the chosen entry appears.
Reply | I
(I: 200 nM, II: 520 nM)
